These entries and their values trace back to PubChem BioAssay AID686949.

Biological target: Kallikrein-7 (Homo sapiens) (UniProt P49862)
Sequence (P49862 whole entry, looked up): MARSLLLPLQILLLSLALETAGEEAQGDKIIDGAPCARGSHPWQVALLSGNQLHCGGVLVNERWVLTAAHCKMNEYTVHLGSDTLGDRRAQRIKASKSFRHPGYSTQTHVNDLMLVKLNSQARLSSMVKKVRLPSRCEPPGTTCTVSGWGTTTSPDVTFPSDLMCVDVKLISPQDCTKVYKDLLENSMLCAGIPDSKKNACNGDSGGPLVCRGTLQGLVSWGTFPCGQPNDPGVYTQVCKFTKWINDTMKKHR
Experiment: activation of human kallikrein-7 proenzyme – biochemical, fluorescence intensity, triplicate, confirmation (AID 686949)
Details: purified proKLK7, EDANS-DABCYL substrate fluorescence; at 7 µM; active compounds read high; scaled: vehicle 0, mature enzyme 100
About 2,200 (69%) of roughly 3,200 compounds were called active. The set was probably picked from earlier hits. A selection follows.
Here, each record is paired with measured activation data.
metric-name: activation (%)

INSERT INTO results (compound, metric_name, unit_text, reported_result) VALUES
  ('CCOC(=O)NN1C(=O)c2ccccc2NC1c1cccc(O)c1 (stereo unspecified)', 'activation', '%', 19.6),
  ('CCc1ccc(-c2cc(C(=O)NCc3ccco3)c3ccccc3n2)s1', 'activation', '%', 75.3),
  ('O=C(NCCN1CCOCC1)c1cc(-c2cccs2)nc2ccccc12', 'activation', '%', 24.8),
  ('CC(=O)NN1C(=O)c2ccccc2NC1c1ccccc1 (stereo unspecified)', 'activation', '%', 33.8),
  ('COC(=O)c1c(C)c(C)nc(N)c1C#N', 'activation', '%', 71.3),
  ('CCCCN(C)CCCNC(=O)c1cc(-c2cccs2)nc2ccccc12', 'activation', '%', -47.1);
